// provenance: the supplement of paper PMC9170038

system: MS2 coat protein; experiment: apparent KD of MS2 coat protein; designed switch direction (-1 OFF switch, 1 ON switch): 1; higher = weaker reporter binding; conditions: input ligand: microRNA oligo, concentration not stated
If the reported apparent KD of MS2 coat protein equals or exceeds 30 nM, assign true (1). If not, assign false (0).

MONOMER_SEQUENCE	GROUP
AUCAAAUACCUAGGAUAUAGUACACACAGCGGGCUAGAAGGAGGCGACCACGCUGACAUGAGGAUCACCCAUGUCCAACAGGAU [Eternabot solution 19] (Eterna round: R96, puzzle: Same State NG 1)	true (1)

Is the recorded value of apparent KD of MS2 coat protein equal to or greater than 30 nM for this sequence? AAAGUGGGCUUAUUUGGAUUCUCGUCUGGACAUGAGGAUCACCCAUGUAGGCGCUUGGUCUGAGACUAAGCAGCCGA [Didiinso] (Eterna round: R96, puzzle: Sensor for hsa-mir-208a)
false (0)

// inclusive: apparent KD of MS2 coat protein at least 30 nM? input: AGCUAGUACCGAGGAUAUACUUACAUGAGGACUACCCAUGUAUACAUGGUUCAAUAGGACUACAUGUAGAAGGCGGUACUAGCA [jandersonlee JLSSNG2 1.24 1FMN F5CU+F7U.1] (Eterna round: R96, puzzle: Same State NG 2)
false (0)

Exam item: decide whether the reported apparent KD of MS2 coat protein for AUCCGGAAGCGAGGAUAUGCAGAGGAUCACCCUGCAGAAGGCGCAAAAGCGAGGAUAUGCAGAGGAUCACCCUGCAGAAGGCGC [pwkr ssNG DX.28] (Eterna round: R96, puzzle: Same State NG 1) is at least 30 nM.
false (0)

Given AGUCCAGCCUGAGCUGGACAAAAGCAUGUACAUGAGGAUCACCCAUGUCAUGUACAAGCUUUUUGCUCGUCUUAAAA [JL zipper 46] (Eterna round: R96, puzzle: Sensor for hsa-mir-208a) , state whether its apparent KD of MS2 coat protein is at least 30 nM.
false (0)
